All values here come from ChEMBL document CHEMBL3400131.

Protocol notes: Inhibition of recombinant human full length PKA using kemptide substrate after 80 mins by luminescence mode
Endpoint name: IC50 (µM)

Guide cases for IC50, answers given:
Smi	IC50 [µM]
COc1cccc(OC)c1CNC(=O)Nc1ccc(-c2cn[nH]c2)cc1	13.5
COc1cccc(CNC(=O)Nc2ccc(-c3ccncc3)cc2)c1	2.3
COc1cccc(CN(CCN)C(=O)Nc2ccc(-c3cn[nH]c3)cc2)c1	0.072

(1) COc1cccc(CNC(=O)Nc2ccc(-c3cn[nH]c3)cc2OCCN(C)C)c1
(2) COc1cccc(CN(CCN(C)C)C(=O)Nc2ccc(-c3cn[nH]c3)cc2)c1
(3) COc1cccc(CNC(=O)Nc2ccc(-c3cn[nH]c3)cc2N(C)C)c1
Put the items in order so that reported IC50 rises from first to last. Answer by listing the labels in the order asked for.
3, 2, 1
(3: 0.038 µM, 2: 0.456 µM, 1: 3.9 µM)
